Measured log10 EC50 viability accompanies every entry in the list below.
# Test system: DLD1 NRF2-WT
# conditions-used: 72 h; CellTiter-Glo viability
measured-attribute: log10 EC50 viability (log10 of the value in µM)

compound: CO[C@@H](C)Cn1c(=O)n(C)c2cnc3ccc(-c4cncc(C(C)(C)O)c4)cc3c21
log10 EC50 viability: -0.77

compound: CN1CCN(C2CCC(n3cc(-c4ccc(Oc5ccccc5)cc4)c4c(N)ncnc43)CC2)CC1 (configuration not stated)
log10 EC50 viability: 0.23

compound: NC1(C(=O)N[C@@H](CCO)c2ccc(Cl)cc2)CCN(c2ncnc3[nH]ccc23)CC1 [AZD-5363]
log10 EC50 viability: -0.16

compound: NC(=O)NO [Hydroxyurea]
log10 EC50 viability: 2.56

compound: CC(C)c1cc(-c2n[nH]c(=O)n2-c2ccc3c(ccn3C)c2)c(O)cc1O [Ganetespib]
log10 EC50 viability: -1.58

compound: C=CC(=O)Nc1cccc(Nc2nc(Nc3ccc(OCCOC)cc3)ncc2F)c1 [Spebrutinib]
log10 EC50 viability: -1.09

compound: NS(=O)(=O)NCCNc1nonc1/C(=N/O)Nc1ccc(F)c(Br)c1 [Epacadostat]
log10 EC50 viability: 0.22

compound: CNC(=O)c1nn(C)c2c1C(C)(C)Cc1cnc(Nc3ccc(N4CCN(C)CC4)cc3)nc1-2 [Milciclib]
log10 EC50 viability: -0.03

compound: C[C@@H](Nc1cc(F)cc(F)c1)c1cc(C(=O)N(C)C)cc2c(=O)cc(N3CCOCC3)oc12 [AZD-8186]
log10 EC50 viability: -1.22

compound: C[C@@H](Oc1cc(-n2cnc3ccc(CN4CCN(C)CC4)cc32)sc1C(N)=O)c1ccccc1C(F)(F)F
log10 EC50 viability: -2.48

compound: C[C@@H]1COCCN1c1cc(C2([S@](C)(=N)=O)CC2)nc(-c2cc[nH]c3nccc2-3)n1 [AZD6738]
log10 EC50 viability: 0.43

compound: Cc1ccc(C(=O)Nc2ccc(CN3CCN(C)CC3)c(C(F)(F)F)c2)cc1C#Cc1cnc2cccnn12 [Ponatinib]
log10 EC50 viability: -0.65

compound: CN(c1ncccc1CNc1nc(Nc2ccc3c(c2)CC(=O)N3)ncc1C(F)(F)F)S(C)(=O)=O
log10 EC50 viability: 0.36

compound: COc1cc2c(Nc3ccc(Cl)c(Cl)c3F)ncnc2cc1OC[C@@H]1C[C@@H]2CN(C)C[C@@H]2C1 [Tesevatinib]
log10 EC50 viability: -0.78

compound: Nc1ncnc2c1c(-c1cccc(OCc3ccccc3)c1)cn2[C@H]1C[C@@H](CN2CCC2)C1 [NVP-AEW541]
log10 EC50 viability: 0.25

compound: COc1cc(OC)c(/C=C/S(=O)(=O)Cc2ccc(OC)c(NCC(=O)O)c2)c(OC)c1 [Rigosertib]
log10 EC50 viability: -0.97

compound: COc1cc2c(cc1OC(C)C)[C@H](c1ccc(Cl)cc1)N(c1ccc(N(C)C[C@H]3CC[C@H](N4CCN(C)C(=O)C4)CC3)cc1)C(=O)C2 [NVP-CGM097]
log10 EC50 viability: 0.38

compound: CC(=O)[C@]1(O)Cc2c(O)c3c(c(O)c2[C@@H](O[C@H]2C[C@H](N)[C@H](O)[C@H](C)O2)C1)C(=O)c1ccccc1C3=O [Idarubicin]
log10 EC50 viability: -1.34

compound: COc1cc(OC)cc(N(CCNC(C)C)c2ccc3ncc(-c4cnn(C)c4)nc3c2)c1 [Erdafitinib]
log10 EC50 viability: -1.38

compound: CC(=O)O[C@@]12CO[C@@H]1C[C@H](O)[C@@]1(C)C(=O)[C@H](O)C3=C(C)[C@@H](OC(=O)[C@H](O)[C@@H](NC(=O)OC(C)(C)C)c4ccccc4)C[C@@](O)([C@@H](OC(=O)c4ccccc4)[C@H]21)C3(C)C [Docetaxel]
log10 EC50 viability: -2.47

compound: CC[C@@H]1C(=O)N(C)c2cnc(Nc3ccc(C(=O)N[C@H]4CC[C@H](N5CCN(CC6CC6)CC5)CC4)cc3OC)nc2N1C(C)C [Volasertib]
log10 EC50 viability: -2.29
